Tested on: Noggin (protein binding on small-molecule microarray)
Assay: Noggin binders on small-molecule microarray, primary screen, biochemical, 635/667 nm fluorescence (AID 1095);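 also: score merges 667 nm feature fluorescence with signal to noise over triplicate slides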
Conditions: 635 nm fluorescence, higher = more signal
ASSAY_ENDPOINT: composite z-score
Give the figure only, with no unit attached.

Find composite z-score for `CCc1cccc(NC(=O)O[C@H]2[C@H](OC(=O)Nc3ccc4c(c3)OCO4)[C@@H](OC(=O)Nc3ccc4c(c3)OCO4)[C@@H](OC)O[C@@H]2CO)c1` on Noggin (protein binding on small-molecule microarray) and write it down.
1.22

Find composite z-score for `C[C@@H]1C=CCC(=O)OC[C@H](C)C(=O)N2CCC[C@H]2C(=O)OC1` on Noggin (protein binding on small-molecule microarray) and write it down.
1.7

Find composite z-score for CCN1C(=O)[C@H]2[C@H]3[C@H](O)[C@H](O)CC(=NOC(C)CN4CCCCc5nc(C)c(C)cc54)[C@@H]3CC[C@H]2C1=O (some centres undefined) on Noggin (protein binding on small-molecule microarray) and write it down.
0.732

Find composite z-score for C=CCC(OC(C)=O)[C@@H]1[C@@H](N(Cc2cc3ccccc3o2)C(=O)Cc2ccc(F)cc2)c2cc(OCCCO)ccc2N1C(=O)Cc1ccc(OC)cc1 (some centres undefined) on Noggin (protein binding on small-molecule microarray) and write it down.
-0.0439

* * *

For each record, write down the corresponding composite z-score.
Assay: binders of probe aFGF10 on microarray, primary screen, stem cell growth factor project, biochemical, small-molecule microarray, fluorescence 635/667 (AID 1071);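 also: score merges 667 nm spot intensity and signal to noise from triplicate slides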
Settings: higher = more signal
Give the figure only, with no unit attached.

Item `C#CCCCON=C1C[C@@H](O)[C@@H](O)[C@@H]2[C@@H]3C(=O)N(c4cccc(Oc5ccccc5)c4)C(=O)[C@@H]3CC[C@@H]12` : provide composite z-score
0.967

Item `COC(=O)[C@H]1COC(c2ccc(OCCCO)cc2)=N1` : provide composite z-score
-0.576

Item `CC(C)[C@@H](OCc1ccccc1)[C@H](C)C=NO[C@H](C)c1cn([C@H](CO)Cc2ccccc2)nn1` : provide composite z-score
0.616

* * *

Assay: PSAC antagonists in infected red cells, primary screen, cell-based, P. falciparum Indochina, OD700, 1 h (AID 1154)
Conditions: P. falciparum Indochina infected RBC osmotic lysis, higher = more signal, called active from +8 up or from −8 down
For each record, write down the corresponding z-score.
Give the figure only, with no unit attached.

Item `CC[C@@H](c1ccccc1)n1c(=O)n2n(c1=O)[C@H]1[C@H](O)[C@@H]3O[C@@H]3C(=NOCC(C)C)[C@H]1CC2` : provide z-score
-0.0462

Item `COc1ccc(O[C@H]2C=C[C@@H](c3ccccc3)O[C@@H]2COC(=O)CCC(C)=NO[C@H](C)c2cn([C@@H]3COC[C@H]3O)nn2)cc1` : provide z-score
5.05

Item `CO[C@@H]1COC(=O)[C@H](C)NC(=O)[C@@H](C)COC(=O)CCC[C@H]1C` : provide z-score
5.14

Item `CCOC(=O)NN=C1C[C@@H](O)[C@@H](O)[C@@H]2[C@@H]3C(=O)N(C(C)(C)C)C(=O)[C@@H]3CC[C@@H]12` : provide z-score
0.209

Item `C[C@@H]1CC[C@H]2C(=O)O[C@H](COc3ccc(C(C)(C)C)cc3)CN2[C@H]1c1ccc(Br)cc1` : provide z-score
0.813

Item Cn1cccc1C(O)C1C=CC2C(=O)NC(=O)C2N1Nc1ccccn1 (centres undefined) : provide z-score
2.33

Item CN1C(=O)C2C=CC(C(O)c3ccc(I)cc3)N(NC(=O)OC(C)(C)C)C2C1=O (centres undefined) : provide z-score
0.365

Item `CC(C)=NOCc1cccc(-c2cc(-c3ccccc3)no2)c1` : provide z-score
0.648

Item `CC(C)=NOCc1ccc(-c2cc(-c3ccccc3)no2)cc1` : provide z-score
0.251

* * *

Assay: A549 lung cancer cell viability effects, profiling panel, resazurin fluorescence, 24 h, PK04 Diversity Set (AID 1171); also: test concentration not given here
Conditions: higher = more signal, called active from +8 up or from −8 down
# cutoff 0.4 applies to z-score; >= gives condition met, < gives condition not met

Reported z-score reaches at least 0.4 for `CO[C@@H]1COC(=O)CCC[C@@H](C)[C@H](OC)COC(=O)CCC[C@H]1C` ?
condition not met

Reported z-score reaches at least 0.4 for CC(CCN1CCCCc2nc(C)c(C)cc21)=NOC(C)CN1CCCc2nc(C)c(C)cc21 (stereo not drawn) ?
condition not met

Reported z-score reaches at least 0.4 for `CC(CCN1CCc2nc(-c3ccccc3)c(-c3ccccc3)cc2C1)=NO[C@@H](C)c1cn([C@H](CO)Cc2ccccc2)nn1` ?
condition not met

Reported z-score reaches at least 0.4 for CCOC(=O)[C@H](CC(C)C)NC(=O)CCC1CC(OC(=O)NCc2cccc3ccccc23)CC2(CCCC(COC(=O)NCCN3CCOCC3)O2)O1 (stereo partly drawn) ?
condition met

Reported z-score reaches at least 0.4 for `COC(=O)[C@H]1COC(c2ccc(OCCCO)cc2)=N1` ?
condition not met

Reported z-score reaches at least 0.4 for COC(=O)[C@H](C)NC(=O)CCC1CC(OC(=O)NCc2cccc3ccccc23)CC2(CCCC(COC(=O)NCC3CCCCC3)O2)O1 (stereo partly drawn) ?
condition met

Reported z-score reaches at least 0.4 for `CO[C@@H]1COC(=O)[C@@H]2CCCN2C(=O)[C@@H](C)COC(=O)[C@H](COCc2ccccc2)NC(=O)CC=C[C@H]1C` ?
condition not met

Reported z-score reaches at least 0.4 for `O=C1c2ccccc2[C@@]2(Cc3ccccc3N(C3CC3)C2=O)[C@H](c2ccc(CO)cc2)N1Cc1ccccc1C(F)(F)F` ?
condition not met

* * *

Test: HepG2 cell viability effects, profiling panel, calcein-AM fluorescence, 48 h, basal (AID 1164); also: test concentration not given here
Conditions: higher = more signal
ASSAY_ENDPOINT: z-score
Give the figure only, with no unit attached.

Item `COc1ccc(-c2nc3c(c4c2C[C@H](C)OC4)CN(CCC(C)C)CC3)cc1` : provide z-score
0.443

Item `CC(CCN1CCc2nc(-c3ccccc3)c(-c3ccccc3)cc2C1)=NOC[C@@H](C)[C@H](OCc1ccccc1)C(C)C` : provide z-score
0.488

Item `CCOC(=O)CCN1C(=O)[C@H]2[C@H]3[C@H](O)[C@H](O)CC(=NOC[C@@H](O)COCc4ccco4)[C@H]3CC[C@H]2C1=O` : provide z-score
-0.524

Item c1ccc(C2NCCc3c2[nH]c2ccccc32)cc1 (stereo unspecified) : provide z-score
-0.704

Item `C[C@@H](c1ccccc1)N1C(=O)[C@H]2[C@H]3[C@H](O)C=CC(=O)[C@@H]3CC[C@H]2C1=O` : provide z-score
0.628

Item CCOC(=O)[C@H](CC(C)C)NC(=O)CCC1CC(OC(=O)NCc2cccc3ccccc23)CC2(CCCC(COC(=O)NCCc3ccccc3OC)O2)O1 (stereo partly specified) : provide z-score
-0.766

* * *

Experiment: small-molecule microarray binders of probe aShh, primary screen, biochemical, biotinylated probe, 635/667 nm fluorescence (AID 1114);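 also: probe is biotin-labelled aShh protein from a stem cell growth factor screen; measures binding of labelled protein to compounds printed on the slide; score merges feature fluorescence at 667 nm with signal-to-noise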
Conditions: higher = more signal
# cutoff -0.02 applies to composite z-score; >= gives Criterion met, < gives Criterion not met

Reported composite z-score reaches at least -0.02 for `CCCNC(=O)OC[C@H]1O[C@H](CCON=CC[C@@H]2C=C[C@H](OC(C)=O)[C@@H](COC(C)=O)O2)C=C[C@@H]1Oc1ccc(OC)cc1` ?
Criterion not met

Reported composite z-score reaches at least -0.02 for `CC(C)=CCCC(C)=CCON=C1[C@H]2CCn3c(=O)n(C)c(=O)n3[C@H]2[C@H](O)[C@@H]2O[C@H]12` ?
Criterion met

Reported composite z-score reaches at least -0.02 for `C=C(/C(=C/C[C@@H](OC(=O)c1ccncc1)c1ccc(OCCO)cc1)c1cnc2ccccc2c1)C(C)C` ?
Criterion not met

Reported composite z-score reaches at least -0.02 for `CC(C)=CCCC(C)=CCON=C1C[C@@H](O)[C@@H](O)[C@@H]2[C@@H]3C(=O)N(C[C@@H]4CCCO4)C(=O)[C@@H]3CC[C@@H]12` ?
Criterion not met

Reported composite z-score reaches at least -0.02 for `C[C@@H]1C=CCC(=O)OC[C@H](C)C(=O)N2CCC[C@H]2C(=O)OC1` ?
Criterion met

Reported composite z-score reaches at least -0.02 for `COc1ccc(CCNC(=O)[C@@H]2c3ccccc3C(=O)N(c3ccc(C)cn3)[C@H]2c2ccc(CO)cc2)cc1` ?
Criterion not met

* * *

Test: modulators of HCV replicon luciferase signal, primary screen, HCV replication inhibitor project, Huh7 cells, luciferase reporter (AID 1109);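 also: huh7 hepatoma cells harbouring a luciferase neomycin HCV replicon reporter; luciferase luminescence as measure of HCV replicon replication; test concentration not given here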
Settings: 48 h, higher = more signal
ASSAY_ENDPOINT: z-score
Give the figure only, with no unit attached.

Item CCOC(=O)[C@H](CC(C)C)NC(=O)CCC1CC(OC(=O)NCc2cccc3ccccc23)CC2(CCCC(COC(=O)NCCN3CCOCC3)O2)O1 (some centres undefined) : provide z-score
-0.814

Item `COCCCNC(=O)[C@]1(Cc2ccccc2)N=C(c2ccc(OCCCO)cc2)O[C@@H]1c1ccccc1` : provide z-score
-1.05

Item `CCCC[C@@H](O)C1=C(C)C[C@H]2C(=O)N(Cc3ccccc3)C(=O)[C@H]2[C@H]1CO` : provide z-score
0.156

Item `CC(C)=CCCC(C)=CCON=C1[C@H]2CCn3c(=O)n(Cc4cc5c(cc4Cl)OCO5)c(=O)n3[C@H]2[C@H](O)[C@@H]2O[C@H]12` : provide z-score
-0.78
